Attribution: patent US20240228491A1

pIC50 values recorded for MAT2a (Homo sapiens (Human), UniProt P31153)
As a rule, pIC50 stands for the negative log10 of the concentration, concentration in M.

Worked cases, pIC50 given:
COCCn1cc2cc(-c3c(N)c4ccc(C(F)(F)F)nc4n(-c4ccc(Cl)cc4)c3=O)ccc2n1	7.79
CNc1c(-c2cncs2)c(=O)n(-c2ccc(Cl)cc2)c2nc(C(F)(F)F)ccc12	7.59
CS(=O)(=O)CCn1ncc2cc(-c3c(N)c4ccc(C(F)(F)F)nc4n(-c4ccc(Cl)cc4)c3=O)ccc21	7.79
Cc1ccc(-c2c(N)c3ccc(C(F)(F)F)nc3n(-c3ccc(Cl)cc3)c2=O)o1	7.64

Check MAT2a (Homo sapiens (Human), UniProt P31153) data and give pIC50 for Nc1c(-c2ccc3nccnc3c2)c(=O)n(-c2ccc(Br)cc2)c2nc(C(F)(F)F)ccc12 .
7.76

Check MAT2a (Homo sapiens (Human), UniProt P31153) data and give pIC50 for CNc1c(-c2ccc(F)cc2)c(=O)n(-c2ccccc2)c2nc(C(F)(F)F)ccc12 .
7.75
